Cited source for all entries: patent US12649778

biological target: Peptide 1593 (…) (Mycobacterium tuberculosis); test: ELISA, NNK clone supernatant on coated peptide
Experimental endpoint: ratio (OD450 to WT OD450)

Quick one: ratio (OD450 to WT OD450) for 65D3 chimeric Fab, NNK library L5 mutant S to V (VL S27V) (Fab, V domains shown) VH: QSLEESGGRLVTPGGSLTLTCTVSGFSLSTHDISWVRQAPGKGLEWIGVIARRGSTYYASWAKGRFTISKTSTTVDLKITSPTIEDTATYFCAREEFDFWGQGTLVTVSS VL: AVLTQTASPVSAAVGGTVTISCQSSQVVYNNKELSWFQQKPGQPPKLLISYASTLASGVPSRFKGSGSGTQFTLTISDLECDDAATYYCLGGYASTIDMWAFGGGTEVVVK ?
1.41 fold of WT

Quick one: ratio (OD450 to WT OD450) for 65D3 chimeric Fab, NNK library H26 mutant G to K (H-G64K) (Fab, V domains shown) VH: QSLEESGGRLVTPGGSLTLTCTVSGFSLSTHDISWVRQAPGKGLEWIGVIARRGSTYYASWAKKRFTISKTSTTVDLKITSPTIEDTATYFCAREEFDFWGQGTLVTVSS VL: AVLTQTASPVSAAVGGTVTISCQSSQSVYNNKELSWFQQKPGQPPKLLISYASTLASGVPSRFKGSGSGTQFTLTISDLECDDAATYYCLGGYASTIDMWAFGGGTEVVVK ?
1.3 fold of WT

Quick one: ratio (OD450 to WT OD450) for 65D3 chimeric Fab, NNK library L3 mutant S to A (VL S25A) (Fab, V domains shown) VH: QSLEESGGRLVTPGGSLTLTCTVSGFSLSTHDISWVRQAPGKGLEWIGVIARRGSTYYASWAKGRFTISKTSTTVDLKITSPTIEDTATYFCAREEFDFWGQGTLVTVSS VL: AVLTQTASPVSAAVGGTVTISCQSAQSVYNNKELSWFQQKPGQPPKLLISYASTLASGVPSRFKGSGSGTQFTLTISDLECDDAATYYCLGGYASTIDMWAFGGGTEVVVK ?
1.21 fold of WT

Quick one: ratio (OD450 to WT OD450) for 65D3 chimeric Fab, NNK library H25 mutant K to R (VH K63R) (Fab, V domains shown) VH: QSLEESGGRLVTPGGSLTLTCTVSGFSLSTHDISWVRQAPGKGLEWIGVIARRGSTYYASWARGRFTISKTSTTVDLKITSPTIEDTATYFCAREEFDFWGQGTLVTVSS VL: AVLTQTASPVSAAVGGTVTISCQSSQSVYNNKELSWFQQKPGQPPKLLISYASTLASGVPSRFKGSGSGTQFTLTISDLECDDAATYYCLGGYASTIDMWAFGGGTEVVVK ?
1.4 fold of WT

Quick one: ratio (OD450 to WT OD450) for 65D3 chimeric Fab, NNK library L5 mutant S to K (VL S27K) (Fab, V domains shown) VH: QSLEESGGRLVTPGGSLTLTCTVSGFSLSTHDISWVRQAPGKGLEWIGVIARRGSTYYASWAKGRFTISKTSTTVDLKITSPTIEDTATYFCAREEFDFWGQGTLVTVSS VL: AVLTQTASPVSAAVGGTVTISCQSSQKVYNNKELSWFQQKPGQPPKLLISYASTLASGVPSRFKGSGSGTQFTLTISDLECDDAATYYCLGGYASTIDMWAFGGGTEVVVK ?
1.49 fold of WT
